Value source: PubChem BioAssay (NCI)

Test system: OVCAR-4 ovarian
Experiment: NCI-60 one-dose screen, 48 h (100 = growth as untreated, 0 = no growth, -100 = all killed)
Details: 10 µM
This is part of a sample that, as a whole, favours compounds with a hit. Of some 83,000 tested, about 20% had one in any assay.
Entries and their growth values follow.
Field: numeric (%). Do not append units.

Guide cases for growth, answers given:
{"compound": "CCN(CC)CCCC(C)Nc1c2ccc(C)cc2nc2ccc(OC)cc12 (stereo not given)", "assay-target": "OVCAR-4 ovarian", "unit-of-measurement": "%", "value-observed": -6.2}
{"compound": "CCN(CC)CCCOc1ccc2c(c1)O/C(=C\\c1cccc(OC)c1)C2=O", "assay-target": "OVCAR-4 ovarian", "unit-of-measurement": "%", "value-observed": 94.2}
{"compound": "O=C(Nc1ccc(CN2CCOCC2)c(C(F)(F)F)c1)c1nc2ccc3[nH]ncc3c2c2c1CCCC2", "assay-target": "OVCAR-4 ovarian", "unit-of-measurement": "%", "value-observed": 91}
{"compound": "COc1cc2c(cc1OC(C)=O)C(=O)CCCC2", "assay-target": "OVCAR-4 ovarian", "unit-of-measurement": "%", "value-observed": 95.1}

Next compound, please.
Note to self: growth recorded for `O=C(CSc1nc2ccc([N+](=O)[O-])cc2[nH]1)Nc1ccc(F)c(Cl)c1` was 2.64

* * *

Tested on: KM12 colon
Experiment: NCI-60 one-dose screen, 48 h
Settings: 10 µM unless noted
This is part of a sample that, as a whole, favours compounds with a hit. Of some 83,000 tested, about 20% had one in any assay. Active and inactive are the calls of the source. How the source made its calls: active means growth percent below 10; inactive means the rest.
Please state which outcome applies, choosing from 1 for active, 0 for inactive

Answered cases to consult:
{"compound": "Nc1nc(Cl)c2ncn(Cc3cc4c(cc3I)OCO4)c2n1", "class": 1}
{"compound": "CC/C=C(\\C)C(CCC)(CN=O)C(=O)OCC (centres undefined)", "class": 0}
{"compound": "CO[C@H]1CC[C@@]2(C)C(=CC[C@H]3[C@@H]4C[C@H](O)C[C@@]4(C)CC[C@@H]32)C1", "class": 0}
{"compound": "CCOC(=O)c1c[nH]n2c(=S)ncnc12", "class": 0}
{"compound": "CC[C@]1(O)CC2CN(CCc3c([nH]c4ccccc34)[C@@](C(=O)OC)(c3cc4c(cc3OC)N(C=O)[C@H]3[C@@](O)(C(=O)OC)[C@H](OC(C)=O)[C@]5(CC)C=CCN6CC[C@]43[C@@H]65)C2)C1 (some centres undefined)", "class": 1}
{"compound": "CCCCOC(=O)c1c(C)[nH]c(/C=C2\\N=C(c3ccc[nH]3)C=C2OC)c1C", "class": 1}

Challenge: Called result for `O=C(NCCCNC(=O)OCc1ccc2cccc(O)c2n1)OCc1ccc2cccc(O)c2n1`
Response given: 0

Challenge: Called result for `COc1ccc(-c2c(C)nn3c(NCCN4CCOCC4)cc(C)nc23)cc1OC`
Response given: 0

Challenge: Called result for `COc1cc(NN=C(c2ccc(O)cc2)c2ccc(O)cc2)c([N+](=O)[O-])cc1[N+](=O)[O-]`
Response given: 0

Challenge: Called result for `C[N+](C)(C)c1ncnc2[n-]cnc12`
Response given: 0

Challenge: Called result for `O=S(=O)(c1ccc(N/N=C\c2ccccc2Cl)cc1)c1ccc(N/N=C/c2ccccc2Cl)cc1`
Response given: 0

Challenge: Called result for `CN(C)CCCNc1nc(-c2cccc(C(Cl)(Cl)Cl)c2)nc(C(Cl)(Cl)Cl)n1`
Response given: 0

Challenge: Called result for `C=C(C)[C@@H]1CC[C@]2(C(=O)N3CCN(C)CC3)CC[C@]3(C)[C@H](CC[C@@H]4[C@@]5(C)C/C(=C/c6ccncc6)[C@H](O)C(C)(C)[C@@H]5CC[C@]43C)[C@@H]12`
Response given: 1

Challenge: Called result for `CC(C)C1=NOC(=O)C1=Cc1cn(-c2cccnc2)nc1-c1ccccc1`
Response given: 0

Challenge: Called result for `CCCCCCCCCCCCNC(=S)N/N=C/c1ccccc1O`
Response given: 0

Challenge: Called result for CC1(C)OC2[C@@H](CNC(=O)NC(=O)NC(=O)CI)O[C@@H](n3cnc4c(NC(=O)Nc5ccccc5)ncnc43)[C@H]2O1 (some centres undefined)
Response given: 0

Challenge: Called result for `Cn1cc(-c2noc(-c3cn(C)c4ncccc34)n2)c2cc(Cl)ccc21`
Response given: 0

Challenge: Called result for `C[C@H]1[C@H](C)CC[C@]2(C(=O)N3CCN(C)CC3)CC[C@]3(C)C(=CC[C@@H]4[C@@]5(C)C/C(=C/c6ccco6)C(=O)C(C)(C)[C@@H]5CC[C@]43C)[C@H]12`
Response given: 0

* * *

Tested on: SF-295 CNS
Assay: NCI-60 one-dose screen, 48 h (100 = growth as untreated, 0 = no growth, -100 = all killed)
Settings: 10 µM unless noted
This is part of a sample that, as a whole, favours compounds with a hit. Of some 83,000 tested, about 20% had one in any assay.
Response key: yes means growth >= 60%; no means growth < 60%.

Answered cases to consult:
{"structure-as-smiles": "O=C(O)CSCc1nnc2n(Cc3ccccc3)c(=O)c3c4c(sc3n12)CCCC4", "class": "no"}
{"structure-as-smiles": "COc1ccc(-c2cc(-c3ccc(Cl)cc3)nc(NCCCCNc3ccnc4cc(Cl)ccc34)n2)cc1", "class": "yes"}

Challenge: growth >= 60% for `N#C/C(C(=O)c1ccccc1)=C1/C(=O)Nc2ccc(Br)cc21` ?
Response given: yes

Challenge: growth >= 60% for `CCOC(=O)C(=Cc1ccccc1[N+](=O)[O-])C(=O)OCC` ?
Response given: yes

* * *

System: OVCAR-3 ovarian
Test: NCI-60 one-dose screen, 48 h
Details: 10 µM unless noted
The panel holds about 83,000 compounds, 20% with a hit somewhere; the sample as a whole holds those more often. Active and inactive are the calls of the source. The calls were made as follows: active = growth percent below 10; inactive = the rest.
Please state which outcome applies, choosing from Yes (active), No (inactive)

{"molecule": "O=C1/C(=C\\c2cn(CC(O)CN3CCCCC3)c3ccccc23)c2ccccc2N1c1c(Cl)cccc1Cl (stereo not drawn)", "assay-target": "OVCAR-3 ovarian", "class": "Yes"}
{"molecule": "CC1(C)CC[C@]23CC[C@]4(C)[C@H](CC[C@@H]5[C@@]6(C)C/C(=C/c7cccnc7)C(=O)C(C)(C)[C@@H]6CC[C@]54C)[C@H]2[C@H]1OC3=O", "assay-target": "OVCAR-3 ovarian", "class": "No"}
{"molecule": "O=C1COCCN1c1ccc(NCc2cn(Cc3ccc(F)cc3)c3ccccc23)cc1", "assay-target": "OVCAR-3 ovarian", "class": "Yes"}
{"molecule": "N#CC1C(=O)NC(c2ccccc2[N+](=O)[O-])c2sc3c(F)cccc3c21 (stereo not drawn)", "assay-target": "OVCAR-3 ovarian", "class": "Yes"}
{"molecule": "CC(C)[N+](C)(C)CC(O)COc1cccc2ccccc12 (stereo not drawn)", "assay-target": "OVCAR-3 ovarian", "class": "No"}
{"molecule": "Nc1nc(Nc2ccccc2)c2ncn(Cc3ccc4c(c3)OCO4)c2n1", "assay-target": "OVCAR-3 ovarian", "class": "No"}

Challenge: Called result for `CCOC(=O)c1c[nH]c2cc(OCC3CC3)c(OCC3CC3)cc2c1=O`
Response given: No

Challenge: Called result for `O=C(Nc1cccc2ccccc12)c1cc2ccccc2cc1O`
Response given: No

Challenge: Called result for `C#C[C@]1(O)CC[C@H]2[C@@H]3CC=C4c5nc(N)sc5CC[C@]4(C)[C@H]3CC[C@@]21C`
Response given: No

Challenge: Called result for `COc1cc2c(O)n(CCCN3CCOCC3)c3c4cnc5cccc(c(=O)c3c2cc1OC)c54`
Response given: No

Challenge: Called result for `O=C1COCCN1c1ccc(Nc2nc(Cl)nc(N3CCOCC3)n2)cc1`
Response given: No

* * *

System: HT29 colon
Assay: NCI-60 one-dose screen, 48 h (100 = growth as untreated, 0 = no growth, -100 = all killed)
Conditions: 10 µM unless noted
This is part of a sample that, as a whole, favours compounds with a hit. Of some 83,000 tested, about 20% had one in any assay. Activity calls are given as the source filed them. How the source made its calls: active means growth percent below 10; inactive means the rest.
property: growth

Guide cases for growth, answers given:
{"compound": "Cc1ncc(C(=O)Nc2ccc(CN3CCN(C)CC3)c(C(F)(F)F)c2)cc1C#Cc1c(N)ncc2ccc(C#N)cc12", "growth": "11.9% (inactive)"}
{"compound": "Clc1ccc(N2CCN(CCCN3CCN(c4cccc(Cl)c4)CC3)CC2)cc1", "growth": "34.7% (inactive)"}
{"compound": "C[C@@H](NC(=O)[C@@H](CC(=O)N1CCC(N2CCCCC2)CC1)N1C(=O)[C@@H](N2C(=O)OC[C@@H]2c2ccccc2)[C@H]1/C=C/c1cccc(Cl)c1)c1ccccc1", "growth": "1.92% (active)"}
{"compound": "COc1cc(NCc2ccccc2O)c2ncccc2c1", "growth": "102% (inactive)"}
{"compound": "CSc1cccc([N+](=O)[O-])c1", "growth": "90.2% (inactive)"}

Note to self: growth recorded for `COC(=O)c1cc(O)c2c(c1C(=O)OC)C[C@H]1[C@@H]3CC=C4C[C@@H](O)CC[C@]4(C)[C@H]3CC[C@]21C` was 16.2% (inactive)

Note to self: growth recorded for `CCN=Cc1c(O)c(O)c(C(C)C)c2cc(C)c(-c3c(C)cc4c(C(C)C)c(O)c(O)c(C=NCC)c4c3O)c(O)c12` was 25% (inactive)

Note to self: growth recorded for C=C(C)C1CCC2(C(=O)O)CCC3(C)C(CCC4C5(C)CCC(OC(=O)NCc6ccccc6)C(C)(C)C5CCC43C)C12 (stereo not drawn) was 43.5% (inactive)
